Provide the reported Selectivity ratio of each item.
- Method notes: Selectivity ratio of progesterone receptor to glucocorticoid receptor
One number for each entry.

# Compound, Selectivity ratio
rows = [
    ("COc1ccc(-n2ncc3c(NC[C@H](C)NS(=O)(=O)c4c(C)cc(C)cc4C)cc(C)cc32)cc1", 10),
    ("Cc1cc(C)c(S(=O)(=O)N[C@@H](C)CNc2cc(C)cc3c2cnn3-c2ccc(S(C)(=O)=O)cc2)c(C)c1", 10),
    ("Cc1cc(C)c(S(=O)(=O)N[C@@H](C)CNc2cc(C)cc3c2cnn3-c2cccc(F)c2)c(C)c1", 10),
    ("Cc1cc(C)c(S(=O)(=O)N[C@@H](C)CNc2cc(C)cc3c2cnn3-c2ccc(F)cc2)c(C)c1", 10),
    ("Cc1cc(C)c(S(=O)(=O)N[C@@H](C)CNc2cc(C)cc3c2cnn3-c2ccc(C#N)cc2)c(C)c1", 10),
]

Okay, now this compound:
Would you kindly share the measured Selectivity ratio for `COc1cccc(-n2ncc3c(NC[C@H](C)NS(=O)(=O)c4c(C)cc(C)cc4C)cc(C)cc32)c1` ? 10
